tested on: HeLa; assay: Cytotoxicity against human HeLa cells by MTT assay; type: functional, cell-based; conditions: Homo sapiens, HeLa; read-out: IC50
measure: IC50 (µM)
Hi! Could you send only the number? It should be in µM, unit omitted.

smiles_representation=COC(=O)C[C@@H]1C[C@@H](O)[C@H](C)[C@H](c2ccccc2)N1 measure=IC50 meas_value=6.5
smiles_representation=COC(=O)C[C@H]1C[C@@H](O)[C@@H](C)[C@@H](c2ccc(OC)cc2)N1 measure=IC50 meas_value=11.5

stdin: Tell me measured IC50 for `COC(=O)C[C@H]1C[C@@H](O)[C@H](C)[C@@H](c2ccccc2)N1` please.
stdout: 35.2

stdin: Tell me measured IC50 for `COC(=O)C[C@@H]1C[C@H](O)[C@H](C)[C@H](c2ccccc2)N1` please.
stdout: 14.2

stdin: Tell me measured IC50 for `C[C@H]1[C@H](O)C[C@@H](CCO)N[C@H]1c1ccccc1` please.
stdout: 31.5

###

tested on: DU-145; assay: Cytotoxicity against human DU145 cells by MTT assay; assay type: functional, cell-based; details: Homo sapiens, DU-145; read-out: IC50
measure: IC50 (µM)
Hi! Could you send only the number? It should be in µM, unit omitted.

smiles_representation=COC(=O)C[C@@H]1C[C@@H](O)[C@H](C)[C@H](c2ccccc2)N1 assayed_system=DU-145 value_units=µM meas_value=6.3
smiles_representation=COC(=O)C[C@H]1C[C@@H](O)[C@@H](C)[C@@H](c2ccc(OC)cc2)N1 assayed_system=DU-145 value_units=µM meas_value=12.6
smiles_representation=COC(=O)C[C@H]1C[C@@H](O)[C@@H](C)[C@@H](c2ccc(C)cc2)N1 assayed_system=DU-145 value_units=µM meas_value=49.7

Now examine the next entry.
stdin: Tell me measured IC50 for `C[C@H]1[C@H](O)C[C@@H](CC(=O)O)N[C@H]1c1ccccc1` please.
stdout: 46.5

###

The following molecules are shown together with reported pIC50 values.
system: HeLa; assay: Cytotoxicity against human HeLa cells by MTT assay; format: functional, cell-based; details: Homo sapiens, HeLa; read-out: IC50
Worth noting: pIC50 values are minus log10 of concentrations stated in mol/L.

Known pIC50 results, listed for orientation:
smiles_representation=COC(=O)C[C@H]1C[C@@H](O)[C@@H](C)[C@@H](c2ccc(F)cc2)N1 meas_value=4.70
smiles_representation=COC(=O)C[C@H]1C[C@H](O)[C@@H](C)[C@@H](c2ccc(OC)cc2)N1 meas_value=5.28
smiles_representation=COC(=O)C[C@H]1C[C@H](O)[C@@H](C)[C@@H](c2ccc(F)cc2)N1 meas_value=4.76
smiles_representation=COC(=O)C[C@H]1C[C@H](O)[C@@H](C)[C@@H](c2ccc(C(C)C)cc2)N1 meas_value=4.74
smiles_representation=COc1cccc2c1C(=O)c1c(O)c3c(c(O)c1C2=O)C[C@@](O)(C(=O)CO)C[C@@H]3O[C@H]1C[C@H](N)[C@H](O)[C@H](C)O1 meas_value=6.15
smiles_representation=COC(=O)C[C@H]1C[C@H](O)[C@H](C)[C@@H](c2ccccc2)N1 meas_value=4.39
smiles_representation=COc1ccc([C@H]2N[C@@H](CCO)C[C@H](O)[C@H]2C)cc1 meas_value=4.78
smiles_representation=C[C@H]1[C@H](O)C[C@@H](CC(=O)O)N[C@H]1c1ccccc1 meas_value=4.48

stdin: Tell me measured pIC50 for `COc1ccc([C@H]2N[C@@H](CC(=O)O)C[C@H](O)[C@H]2C)cc1` please.
stdout: 4.70

stdin: Tell me measured pIC50 for `COC(=O)C[C@H]1C[C@@H](O)[C@@H](C)[C@@H](c2ccc(C)cc2)N1` please.
stdout: 4.87
